Value source: paper PMC10842602

Can you tell me IC50 / EC50 for the items I'm about to list?
Biological target: WT human SLACK (Homo sapiens)
Sequence (Q5JUK3 1-1235 isoform Q5JUK3-3): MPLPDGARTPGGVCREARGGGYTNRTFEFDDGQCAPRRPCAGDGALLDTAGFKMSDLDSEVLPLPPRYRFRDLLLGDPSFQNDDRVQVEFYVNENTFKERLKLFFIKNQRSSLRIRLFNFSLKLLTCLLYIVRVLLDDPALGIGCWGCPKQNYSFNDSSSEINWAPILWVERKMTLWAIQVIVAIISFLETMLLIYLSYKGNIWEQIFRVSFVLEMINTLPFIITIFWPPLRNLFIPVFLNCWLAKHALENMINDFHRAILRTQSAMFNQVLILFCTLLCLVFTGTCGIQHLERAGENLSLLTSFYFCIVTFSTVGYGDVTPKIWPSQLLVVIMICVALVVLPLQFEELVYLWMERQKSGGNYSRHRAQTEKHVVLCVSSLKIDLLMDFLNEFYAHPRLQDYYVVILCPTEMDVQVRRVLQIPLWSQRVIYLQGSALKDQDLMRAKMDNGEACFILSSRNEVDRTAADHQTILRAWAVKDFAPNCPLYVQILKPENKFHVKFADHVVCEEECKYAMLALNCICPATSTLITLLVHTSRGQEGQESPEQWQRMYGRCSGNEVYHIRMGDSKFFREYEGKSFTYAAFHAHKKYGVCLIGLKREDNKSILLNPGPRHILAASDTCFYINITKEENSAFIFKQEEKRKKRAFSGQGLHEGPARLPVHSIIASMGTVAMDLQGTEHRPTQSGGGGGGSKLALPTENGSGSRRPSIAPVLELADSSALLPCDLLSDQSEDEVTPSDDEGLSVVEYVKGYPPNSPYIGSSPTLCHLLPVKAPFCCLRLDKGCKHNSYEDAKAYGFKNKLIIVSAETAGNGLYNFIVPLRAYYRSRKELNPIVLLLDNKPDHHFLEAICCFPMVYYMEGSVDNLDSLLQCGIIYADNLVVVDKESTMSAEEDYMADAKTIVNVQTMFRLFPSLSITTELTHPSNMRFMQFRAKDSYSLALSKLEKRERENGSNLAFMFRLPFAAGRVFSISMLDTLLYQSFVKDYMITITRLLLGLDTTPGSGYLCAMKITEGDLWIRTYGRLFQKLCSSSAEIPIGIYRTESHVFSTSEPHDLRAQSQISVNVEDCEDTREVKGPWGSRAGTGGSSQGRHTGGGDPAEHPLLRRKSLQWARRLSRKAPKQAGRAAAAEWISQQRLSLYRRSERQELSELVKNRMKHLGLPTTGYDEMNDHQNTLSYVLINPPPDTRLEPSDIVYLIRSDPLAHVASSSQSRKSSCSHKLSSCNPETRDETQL
Assay: Tl+ flux assay in HEK-293 cells stably expressing WT human SLACK
Type: cell-based
Details: CRC; IC50 for compounds of mode Inh (also cells printed Inactive)

CCOc1ccccc1S(=O)(=O)N1CC(c2nc(-c3cccc(C)c3)no2)C1 : >10 µM

Could you now look at the following molecule, please?
Qu. I have this molecule here, "CCOc1ccccc1S(=O)(=O)N1CC[C@H](c2nc(-c3ccc(F)cc3)no2)C1" , and I need its recorded IC50 / EC50.
Ans. >10 µM
